# Test system: A498 renal
# EXPERIMENT DESCRIPTION: NCI tumour cell line growth inhibition, 48 h
TGI overview

// known answers, use as guide
1. Nc1nccc(-c2c(-c3ccc(F)cc3)ncn2C2CCC(O)CC2)n1 (stereo unspecified); > 25 µM
2. NC(=S)N1N=C2c3ccccc3CC[C@@H]2[C@@H]1c1ccccc1; > 83.8 µM
3. CCOC(=O)c1oc2cc3c(c4c2c1-c1ccccc1N4C)C=CC(C)(C)O3; > 71.4 µM
4. Nc1nc(N(Cc2ccccc2)c2ccccc2)c2cn[nH]c2n1; 9.23 µM
5. CCC[CH2][Sn]1([CH2]CCC)[O]C(=O)CN=Cc2c(ccc3ccccc23)[O]1; > 100 µM

q: Lab note: need TGI with A498 renal for entry COc1ccc2c(c1)[n+](=O)c(C(=O)C/C(=N/OCCCc1ccccc1)C(=O)NC13CC4CC(CC(C4)C1)C3)c(C)n2[O-] , please look it up.
a: > 100 µM

---

# Test system: NCI-H226 lung
# EXPERIMENT DESCRIPTION: NCI tumour cell line growth inhibition, 48 h
TEST READOUT: TGI

1) Nc1c(-c2ccc(Cl)cc2)[n+]([O-])c2ccccc2[n+]1[O-]; > 100 µM

q: Could you tell me which TGI is on file for COc1ccccc1NC(=S)Nc1cc(C)cc(C)n1 ?
a: > 100 µM

q: Could you tell me which TGI is on file for Cn1c2ccccc2c2ccc3c(c21)C(=O)c1ccccc1C3=O ?
a: > 100 µM

q: Could you tell me which TGI is on file for Nc1nc(I)nc2c1ncn2C1OC(COS(N)(=O)=O)C(O)C1O (stereo not given) ?
a: < 0.0159 µM

q: Could you tell me which TGI is on file for N#C/C(=C\c1ccc2ccccc2c1)c1ccccc1 ?
a: > 100 µM

---

# Tested on: HS 578T breast
# EXPERIMENT DESCRIPTION: NCI tumour cell line growth inhibition, 48 h
TEST READOUT: TGI

1. Nc1nc2c(nnn2C2CC(O)C(CO)O2)c(=O)[nH]1 (stereo unspecified); > 95.7 µM
2. CCC/C=C/c1cc2c(cc1O)CC[C@@H]1[C@@H]2CC[C@]2(C)[C@@H](O)CC[C@@H]12; 57.6 µM
3. Cc1ccc(-c2nc3nc(-c4ccccc4)nc(N4CCCNCC4)c3o2)cc1; 4.02 µM
4. CN(CCC(=O)O)C1=Nc2ccc(Cl)cc2C(c2ccccc2)=[N+]([O-])C1; > 100 µM
5. C/C(Cl)=N/OC(=O)Nc1ccc(S(N)(=O)=O)c(C)c1; > 79.4 µM

q: Could you tell me which TGI is on file for Cc1cc(S(=O)(=O)Nc2nc(N)n(-c3ccccn3)n2)c(S)cc1Cl ?
a: > 100 µM

q: Could you tell me which TGI is on file for Cc1ccc(C(=O)N(CCCN)C(c2oc3cc(Cl)ccc3c(=O)c2Cc2ccccc2)C(C)C)cc1 (stereo unspecified) ?
a: 1.46 µM

q: Could you tell me which TGI is on file for Cc1cc(Cl)cc2c1NC(=O)C2(O)CC(=O)c1ccco1 (stereo unspecified) ?
a: > 100 µM

q: Could you tell me which TGI is on file for CS(=O)(=O)c1ccc(-n2nc(C(F)(F)F)cc2OC2CCCC2)cc1 ?
a: > 100 µM

q: Could you tell me which TGI is on file for O=C1N=C(SC2OC(CO)C(O)C(O)C2O)S/C1=C\c1ccccc1 (stereo unspecified) ?
a: > 100 µM

q: Could you tell me which TGI is on file for CC/C=C\C[C@H](F)C/C=C1/C(=O)C=C[C@@H]1C/C=C\CCCC(=O)O ?
a: > 32.5 µM

q: Could you tell me which TGI is on file for O=c1oc2ccccc2cc1-c1csc(Nc2ccc(F)cc2)n1 ?
a: 4.61 µM

q: Could you tell me which TGI is on file for O=C1c2[nH]c3ccc(Br)cc3c2CCN1Cc1ccc(Cl)cc1 ?
a: 43.3 µM

---

# System: PC-3 prostate
# EXPERIMENT DESCRIPTION: NCI tumour cell line growth inhibition, 48 h
TEST READOUT: TGI

// known answers, use as guide
1. Nc1nccc(-c2c(-c3ccc(F)cc3)ncn2C2CCC(O)CC2)n1 (stereo not given); > 25 µM
2. O=P1(O)c2ccccc2CCc2ccccc21; > 100 µM
3. O=C1Nc2ccccc2C1(c1ccc(O)cc1)c1ccc(O)cc1; 75 µM

q: Could you tell me which TGI is on file for CCOCC(=O)N[C@H]1CCc2cc(OC)c(OC)c(OC)c2-c2ccc(OC)c(=O)cc21 ?
a: > 100 µM

q: Could you tell me which TGI is on file for Cc1ccc(C(=O)N(CCCN)C(c2oc3cc(Cl)ccc3c(=O)c2Cc2ccccc2)C(C)C)cc1 (stereo not given) ?
a: 2.03 µM

q: Could you tell me which TGI is on file for CCOC(=O)CCCNC(=O)CCCCC(=O)N(C)C ?
a: > 100 µM

q: Could you tell me which TGI is on file for COC(=O)C1=C(O)C(C(=O)OC)[C@]2(O)[C@H](C(=O)OC)[C@H]1C[C@@H](c1ccc(Cl)cc1)[C@H]2C(=O)OC (stereo not given in full) ?
a: 18.8 µM

q: Could you tell me which TGI is on file for O=c1cc(-c2ccccc2)oc2cc(OC/C(=N/O)c3ccccc3)ccc12 ?
a: 38.4 µM

q: Could you tell me which TGI is on file for O=[N+]([O-])c1ccc2c(c1)S(=O)(=O)N1Cc3ccccc3CCN21 ?
a: > 100 µM

q: Could you tell me which TGI is on file for CS(=O)(=O)c1ccc(-n2nc(C(F)(F)F)cc2OC2CCCC2)cc1 ?
a: > 100 µM

q: Could you tell me which TGI is on file for C/C(Cl)=N/OC(=O)Nc1ccc(S(N)(=O)=O)c(C)c1 ?
a: 32.3 µM

q: Could you tell me which TGI is on file for O=C(O)CCNC1CCCCC1 ?
a: > 100 µM

q: Could you tell me which TGI is on file for Nc1cccnc1NCC1(CO)CCCC1 ?
a: > 100 µM

q: Could you tell me which TGI is on file for CC(C)(CO)N1CCN(C(=S)Nc2ccccc2)CC1 ?
a: > 100 µM

q: Could you tell me which TGI is on file for CN1CCN(c2ccc3[nH]c(-c4cc(O)c5c(nc(CO)n5C)c4O)nc3n2)CC1 ?
a: > 100 µM

---

# Test system: IGROV1 ovarian
# EXPERIMENT DESCRIPTION: NCI tumour cell line growth inhibition, 48 h
TEST READOUT: TGI

1. COc1ccc(C(=O)c2sc(N(C)C)nc2-c2ccccc2)cc1; > 100 µM
2. CCCCC(=O)c1ccc2ccccc2c1O; > 100 µM

Proceeding to the next molecule to report its TGI.
q: Could you tell me which TGI is on file for C=C1[C@H](OC(C)=O)[C@H]2[C@@H](OC(C)=O)[C@@H](C)C[C@]2(C)C(=O)[C@H](C)/C=C/C(C)(C)C(=O)[C@H](OCC(C)C)[C@H]1OC(C)=O ?
a: > 25 µM

---

# Test system: NCI/ADR-RES ovarian
# EXPERIMENT DESCRIPTION: NCI tumour cell line growth inhibition, 48 h; in the data active = GI50 below about 0.43 µM; inactive = the rest
Bench note: report the call from yes (1) (active), no (0) (inactive)

Answered examples (7):
1. O=C(CCc1nnc2sc(-c3ccc(Cl)cc3Cl)nn12)c1nc2ccccc2[nH]1; no (0)
2. Cc1ccc(-c2nc3nc(-c4ccccc4)nc(N4CCCNCC4)c3o2)cc1; no (0)
3. C=C(C[C@](O)(C(=O)/C=C/c1ccc(Cl)cc1)C(=O)OC)c1ccccc1; no (0)
4. Cc1ccc(C(=O)N(CCCN)C(c2oc3cc(Cl)ccc3c(=O)c2Cc2ccccc2)C(C)C)cc1 (stereo not drawn); yes (1)
5. CC/C=C\C[C@@H](O)C/C=C1/C(=O)C=C[C@H]1C/C=C\CCCC(=O)OC; no (0)
6. C[N+]1=C(/C=C/c2ccc(O)c3ncccc23)C(C)(C)c2ccccc21; no (0)
7. COc1cc2ncn(-c3cc(OCc4cccs4)c(C(N)=O)s3)c2cc1OC; no (0)

Turning now to a further compound:
q: Name the outcome recorded for O=C(O)CCNC1CCCCC1 in the assay.
a: no (0)

---

# Tested on: HL-60(TB) leukemia
# EXPERIMENT DESCRIPTION: NCI tumour cell line growth inhibition, 48 h
TEST READOUT: TGI

1) C/C(CC(=O)Nc1cc(C)ccc1C)=N\NC(=O)c1ccncc1; > 100 µM
2) O=C(O)CCSC(=O)Nc1ccc([N+](=O)[O-])cc1; > 100 µM
3) O=C(N/N=C/C=C/c1ccccc1)[C@H](O)[C@@H](O)C(=O)N/N=C/C=C/c1ccccc1; > 100 µM
4) O=C(Nc1ccncc1)C(=O)c1cn(S(=O)(=O)c2cccc(F)c2)c2ccccc12; > 100 µM

q: Could you tell me which TGI is on file for O=C1N=C(SC2OC(CO)C(O)C(O)C2O)S/C1=C\c1ccccc1 (stereo unspecified) ?
a: > 100 µM

q: Could you tell me which TGI is on file for C/C(O)=C(\N=O)C(=O)Nc1ccc(Cl)cc1Cl ?
a: > 100 µM

q: Could you tell me which TGI is on file for Cc1cc(C)c2c(O)c(S(=O)(=O)c3ccc(Cl)cc3)c(=O)oc2c1 ?
a: > 100 µM

q: Could you tell me which TGI is on file for COc1ccccc1N(CN1C(=O)CCC1C(=O)O)C(C)=O (stereo unspecified) ?
a: > 100 µM

q: Could you tell me which TGI is on file for CCOC(=O)NC(=O)c1cn(CCNCCO)c(=O)[nH]c1=O ?
a: > 100 µM

Ref: PubChem BioAssay (NCI)
